System: SR
protocol description: NCI tumour cell line growth inhibition, 48 h
Active and inactive are the calls of the source. Cut-off read from the data, not from the text of the source: active = GI50 up to about 1.1 µM and inactive = higher.
Classes to choose from: active, inactive

// known answers, use as guide
compound="CC12C3C4C1C1C2C3C41CO (configuration not stated)" assigned_class=inactive
compound="CCN1CC2=C(OC(N)=C(C#N)C2c2ccc(Cl)cc2)/C(=C/c2ccc(Cl)cc2)C1 (configuration not stated)" assigned_class=inactive
compound=CCCCCCCCOCC1S(=O)(=O)OCCOS1(=O)=O assigned_class=inactive

Could you please tell me the result logged for CCOC(=O)CCC(NC(=O)Cc1ccc(Nc2nc3cc(F)c(F)cc3nc2C(=O)OCC)cc1)C(=O)OCC (configuration not stated) in this assay?
inactive

Could you please tell me the result logged for O=C(O)C12C3CCC(C3)C1(C(=O)O)C1CCC2C1 (configuration not stated) in this assay?
inactive

Could you please tell me the result logged for `CO/C(=N\N=Cc1ccccc1)c1ccncc1` in this assay?
inactive

Could you please tell me the result logged for `Fc1ccccc1CN1COc2c(cc(Cl)c3cccnc23)C1` in this assay?
active

Could you please tell me the result logged for `Cn1c(=O)c2nc3sc4c(n3c2n(C)c1=O)C(=O)c1ccccc1C4=O` in this assay?
inactive

Could you please tell me the result logged for Cc1ccc(OCC2OC(n3cnc4c(Br)nc(Br)nc43)CC2Oc2ccc(C)cc2)cc1 (configuration not stated) in this assay?
inactive

Could you please tell me the result logged for NCCCC(N/C=C1/N=C(c2ccccc2)OC1=O)C(=O)O (configuration not stated) in this assay?
inactive

Could you please tell me the result logged for `O=Cc1cc(O)ccc1Br` in this assay?
inactive

Could you please tell me the result logged for CC(C)CC(NC(=O)OC(C)(C)C)C(=O)Nc1ccc(Nc2nc(F)nc(-c3c4ccccc4cn3C)n2)cc1 (configuration not stated) in this assay?
inactive
